# Experimental Details: Beagle dog pharmacokinetic test
# Type: in vivo
# Experimental Parameters: male, plasma, oral, gavage 10 mg/kg vs intravenous 3 mg/kg, dosage standardized, read-out: F (absolute bioavailability)
Experimental Readout: bioavailability

> print(dat)
                                   compound  experimental.readout  obs.value
1  CCOc1cc2c(cc1OC)CCN(C=O)[C@H]2CCc1c[nH]c2ccc(OC)cc12 [(S)-C8]       bioavailability      52.3%

---

Form field: inhibition at 0.5 µM (one value per entry).
# Test system: tumor necrosis factor-α secretion in RAW 264.7 cells
# Experimental Details: Inhibition of LPS-stimulated tumor necrosis factor-α secretion in RAW 264.7 cells (ELISA)
# Format: cell-based, mouse
# Experimental Parameters: Mus musculus, RAW264.7, 4 h, read-out: Tumor necrosis factor-α inhibition rate/%
Experimental Readout: inhibition at 0.5 µM (%)

> print(dat)
                                   compound  unit.of.measurement  obs.value
1  COc1cc2c(cc1OCC1CC1)[C@H](CCc1c[nH]c3cc(C)ccc13)N(C=O)CC2 [(S)-C4]                    %      -30.1
2  CCOc1cc2c(cc1OC)CCN(CCS(C)(=O)=O)[C@H]2Cc1c[nH]c2ccccc12 [(S)-C14]                    %        2.4
3  COc1cc2c(cc1OCC1CC1)[C@H](CCc1c[nH]c3ccccc13)N(C=O)CC2 [(S)-A3]                    %       -2.9
4  CCOc1cc2c(cc1OC)CCN(C(=O)CS(C)(=O)=O)[C@H]2Cc1c[nH]c2ccccc12 [(S)-C15]                    %         18
5  COc1cc2c(cc1OC)C(Cc1c[nH]c3ccccc13)N(CCS(C)(=O)=O)CC2 (stereo not drawn)                    %      -15.1
6  COC(=O)CN1CCc2cc(OC)c(OC)cc2C1CCc1c[nH]c2ccccc12 (stereo not drawn)                    %       -2.1
7  CCOc1cc2c(cc1OC)CCN(C=O)[C@H]2Cc1c[nH]c2ccc(OC)cc12 [(S)-C18]                    %       15.8
8  COc1cc2c(cc1OCC1CC1)C(CCc1c[nH]c3ccccc13)N(C=O)CC2 (stereo not drawn)                    %       -0.5
9  COCC(=O)N1CCc2cc(OC)c(OC)cc2C1Cc1c[nH]c2ccccc12 (stereo not drawn)                    %      -12.7
